Settings: 20.0 µM
What relative solubility at 20 uM was measured for each of the following?
One number for each entry.

>  <Compound>
CSc1ccncc1NC(=O)Cc1ccc2c(c1)CCCC2

>  <relative solubility at 20 uM>
0.99

$$$$
>  <Compound>
Cc1ccncc1NC(=O)Cc1cccc(C(N)=O)c1

>  <relative solubility at 20 uM>
1.01

$$$$
>  <Compound>
C=CC(=O)Nc1cc(C(=O)NC[C@H](Cc2ccccc2)c2ccccn2)ccc1O (stereo in doubt)

>  <relative solubility at 20 uM>
0.83

$$$$

Please report relative solubility at 20 uM for every entry that follows.
1. O=C(CCl)Nc1cccc(-c2ccc3c(c2)CCCC3)c1
2. C=CC(=O)N1CCN(Cc2cc(Cl)cc3ccccc23)CC1
3. Cc1ccncc1NC(=O)Cc1cccc(F)c1
4. Nc1ncc(S(=O)(=O)NCc2cccc(Cl)c2)cn1

[0.9, 0.86, 1.01, 1]

I need relative solubility at 20 uM for every entry listed below, if you could help.
1. COc1ccccc1OCC(C)NC(=O)c1cc(=O)[nH]c2cc(F)ccc12 (configuration not stated)
2. NS(=O)(=O)c1ccc(N2CCSCC2)cc1
3. O=C(Nc1cccc(-c2cc[nH]n2)c1)C(O)c1cccnc1 (configuration not stated)
4. Cc1ccncc1NC(=O)Nc1cccc(C#N)c1
5. O=C(Nc1cccnc1)Nc1cccc(Cl)c1

1: 1; 2: 1; 3: 1; 4: 1; 5: 0.98
